- Test name: Probe fluorescence ratio response to linolenic acid relative to ADIFAB2
- Assay type: binding
- Test parameters: response relative to ADIFAB2
Property label: DR/DR LNA

Solved entries (count: 6):
>>> result("62Y, 72A (protein, listed as Rattus norvegicus, PEPTIDE (1)...(131) wild-type rat intestinal fatty acid binding protein) AFDGTWKVDRNENYEKFMEKMGINVVKRKLGAHDNLKLTITQEGNKFTVKESSNFRNIDVVYELGVDFAYSAADGTELTGTWTMEGNKLVGKFKRVDNGKELIAVREISGNELIQTYTYEGVEAKRIFKKE")
1.395
>>> result("18I 31Y 72A (protein, listed as Rattus norvegicus, PEPTIDE (1)...(131) wild-type rat intestinal fatty acid binding protein) AFDGTWKVDRNENYEKFIEKMGINVVKRKLYAHDNLKLTITQEGNKFTVKESSNFRNIDVVFELGVDFAYSAADGTELTGTWTMEGNKLVGKFKRVDNGKELIAVREISGNELIQTYTYEGVEAKRIFKKE")
2.813
>>> result("74Q, 72A (protein, listed as Rattus norvegicus, PEPTIDE (1)...(131) wild-type rat intestinal fatty acid binding protein) AFDGTWKVDRNENYEKFMEKMGINVVKRKLGAHDNLKLTITQEGNKFTVKESSNFRNIDVVFELGVDFAYSAAQGTELTGTWTMEGNKLVGKFKRVDNGKELIAVREISGNELIQTYTYEGVEAKRIFKKE")
0.86
>>> result("49A1, 72A (protein, listed as Rattus norvegicus, PEPTIDE (1)...(131) wild-type rat intestinal fatty acid binding protein) AFDGTWKVDRNENYEKFMEKMGINVVKRKLGAHDNLKLTITQEGNKFTAKESSNFRNIDVVFELGVDFAYSAADGTELTGTWTMEGNKLVGKFKRVDNGKELIAVREISGNELIQTYTYEGVEAKRIFKKE")
1.68
>>> result("102S, 72A (protein, listed as Rattus norvegicus, PEPTIDE (1)...(131) wild-type rat intestinal fatty acid binding protein) AFDGTWKVDRNENYEKFMEKMGINVVKRKLGAHDNLKLTITQEGNKFTVKESSNFRNIDVVFELGVDFAYSAADGTELTGTWTMEGNKLVGKFKRVDNGKESIAVREISGNELIQTYTYEGVEAKRIFKKE")
0.43
>>> result("18I 31I 55M 73I 72A (protein, listed as Rattus norvegicus, PEPTIDE (1)...(131) wild-type rat intestinal fatty acid binding protein) AFDGTWKVDRNENYEKFIEKMGINVVKRKLIAHDNLKLTITQEGNKFTVKESSNMRNIDVVFELGVDFAYSAIDGTELTGTWTMEGNKLVGKFKRVDNGKELIAVREISGNELIQTYTYEGVEAKRIFKKE")
1.803

So what's the measured DR/DR LNA for this one? 60P, 72A (protein, listed as Rattus norvegicus, PEPTIDE (1)...(131) wild-type rat intestinal fatty acid binding protein) AFDGTWKVDRNENYEKFMEKMGINVVKRKLGAHDNLKLTITQEGNKFTVKESSNFRNIDPVFELGVDFAYSAADGTELTGTWTMEGNKLVGKFKRVDNGKELIAVREISGNELIQTYTYEGVEAKRIFKKE
0.77

So what's the measured DR/DR LNA for this one? 82I3, 72A (protein, listed as Rattus norvegicus, PEPTIDE (1)...(131) wild-type rat intestinal fatty acid binding protein) AFDGTWKVDRNENYEKFMEKMGINVVKRKLGAHDNLKLTITQEGNKFTVKESSNFRNIDVVFELGVDFAYSAADGTELTGTITMEGNKLVGKFKRVDNGKELIAVREISGNELIQTYTYEGVEAKRIFKKE
0.45
